Entry source: patent US6552080B1

Tested on: Erysiphae graminis
ASSAY SUMMARY: Fungicidal activity against Barley Powdery Mildew (BPM) disease
Format: in vivo
ASSAY SETUP: Barley Powdery Mildew; concentration 2 ppm
REPORTED PROPERTY: BPM (Fungicidal Activities, C.V.) (%)
Numbers only, in %.

Example entries and their recorded answers appear below.
CNC(=O)C(=NOC)c1ccccc1CON=Cc1cccc(OC(F)=Cc2ccc(C)c(C)c2)c1 [Compound 32] ... 0
COC=C(C(=O)OC)c1ccccc1CON=C(C)c1cccc(OC(F)=C(c2cccc(OC)c2)C(F)(F)F)c1 [Compound 157] ... 97
COC=C(C(=O)OC)c1ccccc1CON=Cc1cccc(OC(F)=C(c2ccc(OC)cc2)C(F)(F)F)c1 [Compound 111] ... 95

Query block: // query BPM (Fungicidal Activities, C.V.) value for entry CO/C=C(/C(=O)OC)c1ccccc1CON=Cc1cccc(OC(F)=Cc2ccccc2)c1 [Compound 1]
Result block: 99

----------
Tested on: Erysiphae graminis
ASSAY SUMMARY: Fungicidal activity against Barley Powdery Mildew (BPM) disease
Type: in vivo
ASSAY SETUP: Barley Powdery Mildew; concentration 2 ppm
REPORTED PROPERTY: BPM (Fungicidal Activities, C.V.) (%)
One number for each entry, in %.

CCOc1ccc(C(=C(F)Oc2cccc(C=NOCc3ccccc3C(=NOC)C(=O)NC)c2)C(F)(F)F)cc1 ... 0

Hi! Can you tell me BPM (Fungicidal Activities, C.V.) for each of these compounds?
1. COC=C(C(=O)OC)c1ccccc1CON=C(C)c1cccc(OC(F)=C(c2ccc(C)cc2)C(F)(F)F)c1
2. CON=C(C(=O)OC)c1ccccc1CON=Cc1cccc(OC(F)=C(c2ccccc2)C(F)(F)F)c1

Result block:
[95, 76]

Hi! Can you tell me BPM (Fungicidal Activities, C.V.) for each of these compounds?
1. COC=C(C(=O)OC)c1ccccc1CON=Cc1cccc(OC(F)=Cc2ccc(C)cc2)c1
2. CON=C(C(=O)OC)c1ccccc1CON=Cc1cccc(OC(F)=Cc2ccccc2)c1
3. CNC(=O)C(=COC)c1ccccc1CON=C(C)c1cccc(OC(F)=Cc2ccc(C)cc2)c1
4. CCOc1ccc(C=C(F)Oc2cccc(C(C)=NOCc3ccccc3C(=NOC)C(=O)NC)c2)cc1
5. CNC(=O)C(=NOC)c1ccccc1CON=Cc1cccc(OC(F)=Cc2ccc(F)cc2)c1
6. COC=C(C(=O)OC)c1ccccc1CON=C(C)c1cccc(OC(F)=Cc2cc(C)cc(C)c2)c1
7. CCOc1ccc(C=C(F)Oc2cccc(C(C)=NOCc3ccccc3C(=NOC)C(=O)OC)c2)cc1

Result block:
1: 86; 2: 95; 3: 0; 4: 100; 5: 42; 6: 100; 7: 100

Hi! Can you tell me BPM (Fungicidal Activities, C.V.) for each of these compounds?
1. CON=C(C(=O)OC)c1ccccc1CON=C(C)c1cccc(OC(F)=Cc2cccc(Cl)c2)c1
2. CCc1ccc(C(=C(F)Oc2cccc(C(C)=NOCc3ccccc3C(=COC)C(=O)OC)c2)C(F)(F)F)cc1
3. CCc1ccc(C=C(F)Oc2cccc(C(C)=NOCc3ccccc3C(=COC)C(=O)OC)c2)cc1
4. CO/N=C(/C(=O)OC)c1ccccc1CON=C(C)c1cccc(OC(F)=Cc2ccccc2)c1
5. COC=C(C(=O)OC)c1ccccc1CON=Cc1cccc(OC(F)=Cc2cccc(F)c2)c1

Result block:
100
95
99
100
98

----------
System: Pyricularia oryzae Carvara KA301
Format: in vivo
ASSAY SETUP: 2 ppm
Mark each entry 1 if its Fungicidal Activities RCV (C.V.) sits below 70%, and -1 for all others.

For orientation, consider the following solved cases.
CON=C(C(=O)OC)c1ccccc1CON=C(C)c1cccc(OC(F)=C(c2ccc(C)cc2)C(F)(F)F)c1 ... -1
CON=C(C(=O)OC)c1ccccc1CON=C(C)c1cccc(OC(F)=C(c2cccc(C(F)(F)F)c2)C(F)(F)F)c1 ... -1

Query block: In plain terms, does COC=C(C(=O)OC)c1ccccc1CON=C(C)c1cccc(OC(F)=C(c2ccc(Cl)cc2)C(F)(F)F)c1 come in under 70% for Fungicidal Activities RCV (C.V.)?
Result block: 1

Query block: In plain terms, does CON=C(C(=O)OC)c1ccccc1CON=C(C)c1cccc(OC(F)=C(c2cccc(Cl)c2)C(F)(F)F)c1 come in under 70% for Fungicidal Activities RCV (C.V.)?
Result block: -1

Query block: In plain terms, does CON=C(C(=O)OC)c1ccccc1CON=C(C)c1cccc(OC(F)=C(c2cc(Cl)cc(Cl)c2)C(F)(F)F)c1 come in under 70% for Fungicidal Activities RCV (C.V.)?
Result block: -1

Query block: In plain terms, does CON=C(C(=O)OC)c1ccccc1CON=C(C)c1cccc(OC(F)=C(c2ccc3c(c2)OCO3)C(F)(F)F)c1 come in under 70% for Fungicidal Activities RCV (C.V.)?
Result block: 1

Query block: In plain terms, does CNC(=O)C(=NOC)c1ccccc1CON=C(C)c1cccc(OC(F)=C(c2cccc(C(F)(F)F)c2)C(F)(F)F)c1 come in under 70% for Fungicidal Activities RCV (C.V.)?
Result block: -1

----------
Tested on: Erysiphae graminis
ASSAY SUMMARY: Fungicidal activity against Barley Powdery Mildew (BPM) disease
Assay type: in vivo
ASSAY SETUP: Barley Powdery Mildew; concentration 50 ppm
REPORTED PROPERTY: BPM (Fungicidal Activities, C.V.) (%)
Answers are plain numbers, in %.

Example entries and their recorded answers appear below.
COC=C(C(=O)OC)c1ccccc1CON=Cc1cccc(OC(F)=Cc2cccc(Cl)c2)c1 [Compound 13] ... 100
COC=C(C(=O)OC)c1ccccc1CON=Cc1cccc(OC(F)=Cc2ccc(OC)cc2)c1 [Compound 9] ... 100
CON=C(C(=O)OC)c1ccccc1CON=C(C)c1cccc(OC(F)=Cc2cccc(OC)c2)c1 [Compound 71] ... 100

Hi! Can you tell me BPM (Fungicidal Activities, C.V.) for each of these compounds?
1. CNC(=O)C(=COC)c1ccccc1CON=C(C)c1cccc(OC(F)=Cc2cccc(Cl)c2)c1 [Compound 62]
2. CNC(=O)C(=NOC)c1ccccc1CON=C(C)c1cccc(OC(F)=Cc2cccc(C)c2)c1 [Compound 78]
3. CNC(=O)C(=COC)c1ccccc1CON=C(C)c1cccc(OC(F)=Cc2ccc(OC)cc2)c1 [Compound 60]

Result block:
1: 100; 2: 100; 3: 100

Hi! Can you tell me BPM (Fungicidal Activities, C.V.) for each of these compounds?
1. COC=C(C(=O)OC)c1ccccc1CON=Cc1cccc(OC(F)=Cc2ccc(C)cc2)c1 [Compound 3]
2. CON=C(C(=O)OC)c1ccccc1CON=C(C)c1cccc(OC(F)=Cc2cccc(C)c2)c1 [Compound 65]
3. COC=C(C(=O)OC)c1ccccc1CON=C(C)c1cccc(OC(F)=C(c2cccc(OC)c2)C(F)(F)F)c1 [Compound 157]
4. CNC(=O)C(=NOC)c1ccccc1CON=Cc1cccc(OC(F)=C(c2cccc(C)c2)C(F)(F)F)c1 [Compound 140]
5. CO/C=C(/C(=O)OC)c1ccccc1CON=C(C)c1cccc(OC(F)=Cc2ccccc2)c1 [Compound 40]
6. COC=C(C(=O)OC)c1ccccc1CON=Cc1cccc(OC(F)=C(c2ccc(OC)cc2)C(F)(F)F)c1 [Compound 111]
7. COC=C(C(=O)OC)c1ccccc1CON=Cc1cccc(OC(F)=Cc2cc(C)cc(C)c2)c1 [Compound 5]
8. COC=C(C(=O)OC)c1ccccc1CON=C(c1cccc(OC(F)=Cc2ccc3c(c2)OCO3)c1)C(F)(F)F [Compound 94]

Result block:
1: 100; 2: 100; 3: 100; 4: 86; 5: 100; 6: 100; 7: 100; 8: 100

Hi! Can you tell me BPM (Fungicidal Activities, C.V.) for each of these compounds?
1. CON=C(C(=O)OC)c1ccccc1CON=Cc1cccc(OC(F)=Cc2ccc(OC)cc2)c1 [Compound 26]
2. CON=C(C(=O)OC)c1ccccc1CON=C(C)c1cccc(OC(F)=Cc2cccc(Cl)c2)c1 [Compound 75]

Result block:
1. 100
2. 100

----------
Tested on: Erysiphae graminis
ASSAY SUMMARY: Fungicidal activity against Barley Powdery Mildew (BPM) disease
Type: in vivo
ASSAY SETUP: Barley Powdery Mildew; concentration 50 ppm
REPORTED PROPERTY: BPM (Fungicidal Activities, C.V.) (%)
One number for each entry, in %.

CNC(=O)C(=NOC)c1ccccc1CON=Cc1cccc(OC(F)=C(c2ccc(F)cc2)C(F)(F)F)c1 [Compound 145] ... 100
CNC(=O)C(=NOC)c1ccccc1CON=Cc1cccc(OC(F)=C(c2ccccc2)C(F)(F)F)c1 [Compound 139] ... 98
CNC(=O)/C(=N/OC)c1ccccc1CON=C(C)c1cccc(OC(F)=Cc2ccccc2)c1 [Compound 77] ... 100
COC=C(C(=O)OC)c1ccccc1CON=Cc1cccc(OC(F)=Cc2cccc(F)c2)c1 [Compound 11] ... 100
CCOc1ccc(C(=C(F)Oc2cccc(C=NOCc3ccccc3C(=NOC)C(=O)NC)c2)C(F)(F)F)cc1 [Compound 144] ... 95

Hi! Can you tell me BPM (Fungicidal Activities, C.V.) for each of these molecules?
1. COC=C(C(=O)OC)c1ccccc1CON=Cc1cccc(OC(F)=C(c2cccc(Cl)c2)C(F)(F)F)c1 [Compound 116]
2. CON=C(C(=O)OC)c1ccccc1CON=Cc1cccc(OC(F)=Cc2ccc3c(c2)OCO3)c1 [Compound 29]

Result block:
100
80
